- assay_text: Plasma drug concentration and pharmacokinetics after i.p. administration to SNL operated rats
- Type: in vivo, rat
- measurement_context: rat, plasma, ip, 300 mg/kg
parameter_measured: CL/F (mL/min/kg)
Report the figure in mL/min/kg without appending any unit label.

Inquiry: Query (molecule): CCCC(CCC)C(=O)O [VPA, Valproic acid, reference compound] ; field requested: CL/F
Reply text: 3.33

* * *

- assay_text: Plasma drug concentration and pharmacokinetics after i.p. administration to SNL operated rats
- Assay type: in vivo, rat
- measurement_context: rat, plasma, ip, 300 mg/kg
parameter_measured: half-life (h)
Report the figure in h without appending any unit label.

Inquiry: Query (compound): CCCC(CCC)C(=O)O [VPA, Valproic acid, reference compound] ; field requested: half-life
Reply text: 4.6

* * *

- assay_text: Plasma drug concentration and pharmacokinetics after i.p. administration to SNL operated rats
- Format: in vivo, rat
- measurement_context: rat, ip; DID 40 mg kg^−1 i.p., plasma, SNL operated rats
parameter_measured: Tmax
Include the unit right after the number.

Inquiry: Query (compound): CC(C)C(C(N)=O)C(C)C [DID, diisopropylacetamide] ; field requested: Tmax
Reply text: 15 min

* * *

- assay_text: Plasma drug concentration and pharmacokinetics after i.p. administration to SNL operated rats
- Assay type: in vivo, rat
- measurement_context: rat, plasma, ip, 300 mg/kg
parameter_measured: Cmax (µg/mL)
Report the figure in µg/mL without appending any unit label.

Inquiry: Query (compound): CCCC(CCC)C(=O)O [VPA, Valproic acid, reference compound] ; field requested: Cmax
Reply text: 515

* * *

- assay_text: Plasma drug concentration and pharmacokinetics after i.p. administration to SNL operated rats
- Assay type: in vivo, rat
- measurement_context: rat, ip; DID 40 mg kg^−1 i.p., plasma, SNL operated rats
parameter_measured: Cmax (ng/mL)
Report the figure in ng/mL without appending any unit label.

Inquiry: Query (molecule): CC(C)C(C(N)=O)C(C)C [DID, diisopropylacetamide] ; field requested: Cmax
Reply text: 28000

* * *

time of maximal effect after administration values for the compounds below.
- Tested on: tactile allodynia in rats with SNL neuropathy
- assay_text: Tactile allodynia (von Frey filaments) in the spinal nerve ligation (SNL) model of neuropathic pain
- Type: in vivo, rat
- measurement_context: rat, in vivo, ip
Include the unit right after the number.

compound	assay_result
CNC(=O)C1C(C)(C)C1(C)C	60 min
CC1(C)C(C(N)=O)C1(C)C	60 min
CC(C)C(C(N)=O)C(C)C [DID, diisopropylacetamide]	120 min

Now consider a different compound.
Inquiry: Query (compound): CCC(C)C(CC)C(N)=O (stereo not shown) [VCD, 2-ethyl-3-methyl-pentanoic acid amide] ; field requested: time of maximal effect after administration
Reply text: 60 min

* * *

- assay_text: Plasma drug concentration and pharmacokinetics after i.p. administration to SNL operated rats
- Format: in vivo, rat
- measurement_context: rat, ip; DID 40 mg kg^−1 i.p., plasma, SNL operated rats
parameter_measured: CL/F (mL/min/kg)
Report the figure in mL/min/kg without appending any unit label.

Inquiry: Query (compound): CC(C)C(C(N)=O)C(C)C [DID, diisopropylacetamide] ; field requested: CL/F
Reply text: 8.33
